- condition-notes: Crystal 1; DTA
parameter: Normal melting temperature (°C)
Give bare numbers, in °C.

compound	Normal melting temperature, °C
CCCCCCCCCC(=O)O [decanoic acid]	32.33
CCCCCCCC/C=C\CCCCCCCC(=O)OCC(COC(=O)CCCCCCC/C=C\CCCCCCCC)OC(=O)CCCCCCC/C=C\CCCCCCCC [1,2,3-tri(cis-9-octadecenoyl)glycerol]	5.42

Please go through the list and note Normal melting temperature for each compound.
1. CCCCCCCCCCO [decan-1-ol]
2. CCCCCCCCCCCC(=O)O [dodecanoic acid]
3. CCCCCCCCCCCCO [dodecan-1-ol]
4. CCCCCCCCCCCCCCO [1-tetradecanol]
5. CCCCCCCCCCCCCC(=O)O [tetradecanoic acid]

Reply text:
1: 6.96; 2: 45.33; 3: 24.38; 4: 38.0; 5: 55.78

* * *

Assign Triple point temperature to each entry below.
- condition-notes: Crystal 2; DTA
Answers are plain numbers, in K.

Completed entries (count: 5):
compound	observed
CCCCCCCCCCCCCC(=O)O [tetradecanoic acid]	327.95
CCCCCCCCCCO [decan-1-ol]	275.94
CCCCCCCC/C=C\CCCCCCCC(=O)OCC(COC(=O)CCCCCCC/C=C\CCCCCCCC)OC(=O)CCCCCCC/C=C\CCCCCCCC [1,2,3-tri(cis-9-octadecenoyl)glycerol]	258.99
CCCCCCCCCCCCCCO [1-tetradecanol]	310.06
CCCCCCCCCCCCO [dodecan-1-ol]	296.95

Next up:
Notebook: CCCCCCCCCCCC(=O)O [dodecanoic acid] , Triple point temperature read as 317.91

* * *

- protocol: Molar enthalpy of transition or fusion
- condition-notes: Crystal 1; DSC
parameter: Molar enthalpy of transition or fusion (kcal/mol)
One number for each entry, in kcal/mol.

Some solved entries appear below for comparison.
compound	observed
CCCCCCCCCCCCCC(=O)O	10.5
CCCCCCCCCCCC(=O)O	8.27

Dear colleague, could you send me Molar enthalpy of transition or fusion for each of the items below? Thanks.
1. CCCCCCCCCC(=O)O
2. CCCCCCCCCCCCCCO
3. CCCCCCCCCCCCO
4. CCCCCCCC/C=C\CCCCCCCC(=O)OCC(COC(=O)CCCCCCC/C=C\CCCCCCCC)OC(=O)CCCCCCC/C=C\CCCCCCCC [1,2,3-tri(cis-9-octadecenoyl)glycerol]

Reply text:
1. 6.51
2. 10.9
3. 9.19
4. 27.4

Note to self: Molar enthalpy of transition or fusion recorded for CCCCCCCCCCO was 7.09
